Please go through the items and note down their Neu.
Organism: Rattus norvegicus
Assay: Open TG-GATES - Regimen: Single
Format: toxicity, organism-based, Sprague-Dawley
Set-up: regimen Single, gender Male, age 6 weeks
Conditions: in vivo, po, 300 mg/kg, 6 h, tissue Blood, route gavage, dose level Middle
Give bare numbers, in %.

Check out these entries, answers already filled in.
INSERT INTO results (smiles_structure, unit_descriptor, quantitative_readout) VALUES
  ('O=C(OC[C@H]1O[C@@H](OC(=O)c2cc(O)c(O)c(OC(=O)c3cc(O)c(O)c(O)c3)c2)[C@H](OC(=O)c2cc(O)c(O)c(OC(=O)c3cc(O)c(O)c(O)c3)c2)[C@@H](OC(=O)c2cc(O)c(O)c(OC(=O)c3cc(O)c(O)c(O)c3)c2)[C@@H]1OC(=O)c1cc(O)c(O)c(OC(=O)c2cc(O)c(O)c(O)c2)c1)c1cc(O)c(O)c(OC(=O)c2cc(O)c(O)c(O)c2)c1', '%', 15.2),
  ('Cc1nnc2n1-c1ccc(Cl)cc1C(c1ccccc1Cl)=NC2', '%', 18.8),
  ('COC(=O)C1=C(C)NC(C)=C(C(=O)OC)C1c1ccccc1[N+](=O)[O-]', '%', 19.8),
  ('CN/C(=N/CCSCc1nc[nH]c1C)NC#N', '%', 22.6);

# Neu lookup, item CNC(=C[N+](=O)[O-])NCCSCc1ccc(CN(C)C)o1 19.8

###

Species: Rattus norvegicus
Test: Open TG-GATES - Regimen: Daily Repeat
Type: toxicity, organism-based, Sprague-Dawley
Design: regimen Daily Repeat, gender Male, age 6 weeks
Conditions: in vivo, po, 300 mg/kg, […], tissue Blood, route gavage, dose level Middle, time 14 day
# if measured Neu < 20%: Criterion met  # else: Criterion not met

Consider the following illustrative entries.
INSERT INTO results (smiles_structure, label) VALUES
  ('O=C(OC[C@H]1O[C@@H](OC(=O)c2cc(O)c(O)c(OC(=O)c3cc(O)c(O)c(O)c3)c2)[C@H](OC(=O)c2cc(O)c(O)c(OC(=O)c3cc(O)c(O)c(O)c3)c2)[C@@H](OC(=O)c2cc(O)c(O)c(OC(=O)c3cc(O)c(O)c(O)c3)c2)[C@@H]1OC(=O)c1cc(O)c(O)c(OC(=O)c2cc(O)c(O)c(O)c2)c1)c1cc(O)c(O)c(OC(=O)c2cc(O)c(O)c(O)c2)c1', 'Criterion met'),
  ('CN/C(=N/CCSCc1nc[nH]c1C)NC#N', 'Criterion met'),
  ('Cc1nnc2n1-c1ccc(Cl)cc1C(c1ccccc1Cl)=NC2', 'Criterion met');

Does CNC(=C[N+](=O)[O-])NCCSCc1ccc(CN(C)C)o1 have Neu strictly under 20%? Criterion met

Does CCOc1ccc(NC(C)=O)cc1 have Neu strictly under 20%? Criterion not met

###

Organism: Rattus norvegicus
Experiment: Open TG-GATES - Regimen: Single
Assay type: toxicity, organism-based, Sprague-Dawley
Design: regimen Single, gender Male, age 6 weeks
Settings: in vivo, po, 300 mg/kg, 6 h, tissue Plasma, route gavage, dose level Middle
Attribute measured: TC (mg/dL)
One number for each entry, in mg/dL.

Check out these entries, answers already filled in.
INSERT INTO results (compound, quantitative_readout) VALUES
  ('CNC(=C[N+](=O)[O-])NCCSCc1ccc(CN(C)C)o1 [RANITIDINE]', 69.2),
  ('O=C(OC[C@H]1O[C@@H](OC(=O)c2cc(O)c(O)c(OC(=O)c3cc(O)c(O)c(O)c3)c2)[C@H](OC(=O)c2cc(O)c(O)c(OC(=O)c3cc(O)c(O)c(O)c3)c2)[C@@H](OC(=O)c2cc(O)c(O)c(OC(=O)c3cc(O)c(O)c(O)c3)c2)[C@@H]1OC(=O)c1cc(O)c(O)c(OC(=O)c2cc(O)c(O)c(O)c2)c1)c1cc(O)c(O)c(OC(=O)c2cc(O)c(O)c(O)c2)c1 [TANNIC ACID]', 74.4),
  ('COC(=O)C1=C(C)NC(C)=C(C(=O)OC)C1c1ccccc1[N+](=O)[O-] [NIFEDIPINE]', 90.6),
  ('Cc1nnc2n1-c1ccc(Cl)cc1C(c1ccccc1Cl)=NC2 [TRIAZOLAM]', 81.2);

Note: attention shifts to another entry.
# TC lookup, item CN/C(=N/CCSCc1nc[nH]c1C)NC#N [CIMETIDINE] 70.2

These data points were gathered from ChEMBL document CHEMBL3885861.
